Assign IC50 to each entry below.
Tested on: Moloney murine sarcoma virus
assayDetails: Inhibition of virus-induced cytopathogenicity against moloney murine sarcoma virus(MSV)in CEM cells in cell protection assay
Type: functional, organism-based
measurementSetup: CCRF-CEM
The answer is to be given in µg/mL; state only the numeric part.

Value of measured IC50 for the entry Nc1ncnc2ncn(CCOCP(=O)(O)O)c12 : 27

Value of measured IC50 for the entry COC1=C(OC)/C(=C/COP(=O)(O)OC[C@H]2O[C@@H](n3cnc4c(N)ncnc43)[C@H](O)[C@@H]2OP(=O)(O)COCCn2cnc3ncnc(N)c32)OC1=O : 13

Value of measured IC50 for the entry COC1=C(OC)/C(=C/COP(=O)(O)COCCn2cnc3c(O)nc(N)nc32)OC1=O : 0.02

Value of measured IC50 for the entry COC1=C(OC)/C(=C/COP(=O)(O)COCCn2cnc3c(N)ncnc32)OC1=O : 0.93

Value of measured IC50 for the entry Nc1ncnc2c1ncn2[C@@H]1O[C@H](COP(=O)(O)O)[C@@H](OP(=O)(O)COCCn2cnc3ncnc(N)c32)[C@H]1O : 17

Value of measured IC50 for the entry Nc1ncnc2c1ncn2CCOCP(=O)(O)O : 2

Value of measured IC50 for the entry Nc1nc2c(ncn2CCOCP(=O)(O)O)c(=O)[nH]1 : 0.19

* * *

Test system: Human immunodeficiency virus 1
assayDetails: Inhibition of cytopathogenicity against human HIV-1(IIIB) in MT-4 cells
Format: functional, organism-based
measurementSetup: Human immunodeficiency virus 1, MT4
outcomeMeasure: IC50 (µg/mL)
The answer is to be given in µg/mL; state only the numeric part.

Value of measured IC50 for the entry Nc1ncnc2c1ncn2CCOCP(=O)(O)O [ADEFOVIR] : 4.1

Value of measured IC50 for the entry Nc1nc2c(ncn2CCOCP(=O)(O)O)c(=O)[nH]1 [GS-438] : 16

Value of measured IC50 for the entry Nc1ncnc2ncn(CCOCP(=O)(O)O)c12 : 7.8

Value of measured IC50 for the entry Nc1ncnc2c1ncn2[C@@H]1O[C@H](COP(=O)(O)O)[C@@H](OP(=O)(O)COCCn2cnc3ncnc(N)c32)[C@H]1O : 5.9
